Origin of the recorded values: patent US8642801B2

target: IAPP (Homo sapiens); construct: which is a 37 amino acid peptide, derived from a larger precursor peptide, called pro-IAPP; test: MS (electrospray mass spectrometry) binding assay for IAPP; conditions: Table 3D; 40 μM Aβ peptide, 400 μM compound (so in the source)
Sequence (P10997 34-70 limits assumed): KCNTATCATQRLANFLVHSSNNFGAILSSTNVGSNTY

- molecule-smiles: "O=S(=O)(O)CCCNc1ccc(F)cc1"
  MS binding IAPP: "+ (20-39% binding=(+))"
- molecule-smiles: "O=S(=O)(O)CCCN1CCc2c([nH]c3ccc(Br)cc23)C1"
  MS binding IAPP: "+ (20-39% binding=(+))"
- molecule-smiles: "O=C(NCCCCS(=O)(=O)O)OCc1ccccc1"
  MS binding IAPP: "+ (20-39% binding=(+))"
- molecule-smiles: "COc1ccc(NCCCS(=O)(=O)O)cc1"
  MS binding IAPP: "+ (20-39% binding=(+))"
- molecule-smiles: "O=[N+]([O-])c1ccc2[nH]c3c(c2c1)CCN(CCCCS(=O)(=O)O)C3"
  MS binding IAPP: "+ (20-39% binding=(+))"
- molecule-smiles: "Nc1ccc2c(c1)CN(CCCS(=O)(=O)O)CC2"
  MS binding IAPP: "− (<20%=(−))"
- molecule-smiles: "O=C(O)CNCCCS(=O)(=O)O"
  MS binding IAPP: "− (<20%=(−))"
- molecule-smiles: "COC(=O)[C@@H](Cc1ccc(I)cc1)NCCCS(=O)(=O)O"
  MS binding IAPP: "+ (20-39% binding=(+))"
- molecule-smiles: "O=S(=O)(O)CCCn1cc[n+](CCCn2ccnc2)c1"
  MS binding IAPP: "− (<20%=(−))"
- molecule-smiles: "O=S(=O)([O-])CCC[n+]1ccn(CCCS(=O)(=O)O)c1"
  MS binding IAPP: "− (<20%=(−))"
- molecule-smiles: "Nc1ccc2[nH]c3c(c2c1)CCN(CCCCS(=O)(=O)O)C3"
  MS binding IAPP: "+ (20-39% binding=(+))"
- molecule-smiles: "O=C(O)c1ccc2[nH]c3c(c2c1)CCN(CCCS(=O)(=O)O)C3"
  MS binding IAPP: "− (<20%=(−))"
- molecule-smiles: "O=S(=O)(O)CCCCN1CCc2c([nH]c3ccc(Br)cc23)C1"
  MS binding IAPP: "+ (20-39% binding=(+))"
- molecule-smiles: "O=S(=O)(O)CCCn1cccc1"
  MS binding IAPP: "+ (20-39% binding=(+))"
- molecule-smiles: "C[N+](C)(CCCS(=O)(=O)[O-])CCCS(=O)(=O)O"
  MS binding IAPP: "− (<20%=(−))"
- molecule-smiles: "[N-]=[N+]=NCCCS(=O)(=O)O"
  MS binding IAPP: "− (<20%=(−))"
- molecule-smiles: "O=S(=O)(O)CCCn1ccnc1"
  MS binding IAPP: "− (<20%=(−))"
- molecule-smiles: "Nc1ccc(NCCCS(=O)(=O)O)cc1"
  MS binding IAPP: "− (<20%=(−))"
- molecule-smiles: "O=[N+]([O-])c1ccc2c(c1)CN(CCCS(=O)(=O)O)CC2"
  MS binding IAPP: "+ (20-39% binding=(+))"
- molecule-smiles: "O=[N+]([O-])c1cccc2c[n+](CCCS(=O)(=O)[O-])ccc12"
  MS binding IAPP: "+ (20-39% binding=(+))"
- molecule-smiles: "O=C(O)c1ccc2[nH]c3c(c2c1)CCN(CCCCS(=O)(=O)O)C3"
  MS binding IAPP: "− (<20%=(−))"
- molecule-smiles: "O=S(=O)(O)CCCN/C=C\\NCCCS(=O)(=O)O"
  MS binding IAPP: "− (<20%=(−))"
- molecule-smiles: "O=S(=O)(O)CCCN1CCc2c(Br)cccc2C1"
  MS binding IAPP: "+ (20-39% binding=(+))"
